Tested on: 171881-019-R-J1-PDC tumor spheroids, viability;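 also: spheroids exposed to compounds for 7 days; 100% = DMSO vehicle control viability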
ASSAY_NAME: Anticancer human tumor 171881-019-R-J1-PDC patient-derived invasive breast carcinoma cell line growth inhibition [GQUAD]
PARTICULARS: second compound 0.1 µM; first compound 0.00999 µM; stronger effect = lower value; spheroids with HUVEC and MSC
OBSERVATION_TYPE: viability, T/C (%)
Report the figure in % without appending any unit label.

Read off the recorded viability, T/C for Cc1[nH]c2ccccc2c1CCNCc1ccc(/C=C/C(=O)NO)cc1 + Cc1cnc(CNC(=O)c2c(=O)c3ccc(N4CCCN(C)CC4)nc3n3c2sc2ccccc23)cn1
69.1

Next:
Read off the recorded viability, T/C for CC[C@@]1(O)C(=O)OCc2c1cc1n(c2=O)Cc2cc3c(CN(C)C)c(O)ccc3nc2-1 + Cc1[nH]c2ccc(F)cc2c1-c1nc2c3cccnc3c3ncccc3c2[nH]1
93.1

Read off the recorded viability, T/C for Cn1ncnc1[C@H]1c2n[nH]c(=O)c3cc(F)cc(c23)N[C@@H]1c1ccc(F)cc1 + Cc1cnc(CNC(=O)c2c(=O)c3ccc(N4CCCN(C)CC4)nc3n3c2sc2ccccc23)cn1
82.4

Read off the recorded viability, T/C for Cn1ncnc1[C@H]1c2n[nH]c(=O)c3cc(F)cc(c23)N[C@@H]1c1ccc(F)cc1 + CN(C)c1ccc(Nc2c3ccc(NC(=O)CCN4CCCC4)cc3nc3cc(NC(=O)CCN4CCCC4)ccc23)cc1
98.8

Read off the recorded viability, T/C for CCc1c2c(nc3ccc(O)cc13)-c1cc3c(c(=O)n1C2)COC(=O)[C@]3(O)CC + Cc1[nH]c2ccc(F)cc2c1-c1nc2c3cccnc3c3ncccc3c2[nH]1
35.6

Read off the recorded viability, T/C for Cn1ncnc1[C@H]1c2n[nH]c(=O)c3cc(F)cc(c23)N[C@@H]1c1ccc(F)cc1 + Cc1[nH]c2ccc(F)cc2c1-c1nc2c3cccnc3c3ncccc3c2[nH]1
90

Read off the recorded viability, T/C for Cc1[nH]c2ccccc2c1CCNCc1ccc(/C=C/C(=O)NO)cc1 + CN(C)c1ccc(Nc2c3ccc(NC(=O)CCN4CCCC4)cc3nc3cc(NC(=O)CCN4CCCC4)ccc23)cc1
84.5

Read off the recorded viability, T/C for CCc1c2c(nc3ccc(O)cc13)-c1cc3c(c(=O)n1C2)COC(=O)[C@]3(O)CC + Cc1cnc(CNC(=O)c2c(=O)c3ccc(N4CCCN(C)CC4)nc3n3c2sc2ccccc23)cn1
43.5

Read off the recorded viability, T/C for CC[C@@]1(O)C(=O)OCc2c1cc1n(c2=O)Cc2cc3c(CN(C)C)c(O)ccc3nc2-1 + CN(C)c1ccc(Nc2c3ccc(NC(=O)CCN4CCCC4)cc3nc3cc(NC(=O)CCN4CCCC4)ccc23)cc1
93.9

Read off the recorded viability, T/C for Cc1[nH]c2ccccc2c1CCNCc1ccc(/C=C/C(=O)NO)cc1 + Cc1[nH]c2ccc(F)cc2c1-c1nc2c3cccnc3c3ncccc3c2[nH]1
99.5
